Value source: patent US12043670B2

test system: splicing of Ad2.2 pre-mRNA in HeLa nuclear extract; assay: In vitro splicing (IVS), qPCR readout, Ad2.2 substrate; format: biochemical
Listed below: IC50 values for each entry.
MEASURED_PROPERTY: IC50 (nM)

>  <MOLECULE>
CC[C@H](O)[C@@H](C)[C@H]1O[C@@H]1C[C@@](C)(O)/C=C/C=C(\C)[C@H]1OC(=O)C[C@H](O)CC[C@@](C)(O)[C@@H](OC(=O)N2CCNCC2)/C=C/[C@@H]1C [D1]

>  <ASSAY_TARGET>
splicing of Ad2.2 pre-mRNA in HeLa nuclear extract

>  <MEASURED_PROPERTY>
IC50

>  <UNIT_INFO>
nM

>  <RECORDED_VALUE>
25

$$$$
>  <MOLECULE>
CC[C@H](O)[C@@H](C)[C@H]1O[C@@H]1C[C@@](C)(O)/C=C/C=C(\C)[C@H]1OC(=O)C[C@H](O)CC[C@@](C)(OC(C)=O)[C@@H](OC(=O)N2CCNCC2)/C=C/[C@@H]1C [D2]

>  <ASSAY_TARGET>
splicing of Ad2.2 pre-mRNA in HeLa nuclear extract

>  <MEASURED_PROPERTY>
IC50

>  <UNIT_INFO>
nM

>  <RECORDED_VALUE>
119

$$$$
